The compounds listed here are annotated with their Δ^13C(‰) value at 5 min after the administration.
test system: pancreatic exocrine function; assay: 13C-dipeptide breath test in normal rats (Δ13C in exhaled CO2 after oral administration); format: in vivo, rat; conditions: normal rats, oral 35 μmol/kg, 5 min, mean±SD

{"columns": ["compound", "assay.result"],
 "data": [
  ["C[C@H](NC(=O)[C@H](Cc1ccccc1)NC(=O)c1ccccc1)[13C](=O)[O-].[Na+] [Na salt of Bz-Phe-(^13C-Ala), N-benzoyl-L-phenylalanyl-^13C-L-alanine]", "29.32±13.57 ‰"],
  ["C[C@H](NC(=O)[C@H](Cc1ccc(O)cc1)NC(=O)c1ccccc1)[13C](=O)[O-].[Na+] [Na salt of Bz-Tyr-(^13C-Ala), N-benzoyl-L-tyrosyl-^13C-L-alanine]", "10.33±6.34 ‰"],
  ["C[C@H](NC(=O)[C@H](CCC(N)=O)NC(=O)c1ccccc1)[13C](=O)[O-].[Na+] [Na salt of Bz-Gln-(^13C-Ala), N-benzoyl-L-glutaminyl-^13C-L-alanine]", "13.86±4.98 ‰"],
  ["CSCC[C@H](NC(=O)c1ccccc1)C(=O)N[C@@H](C)[13C](=O)[O-].[Na+] [Na salt of Bz-Met-(^13C-Ala), N-benzoyl-L-methionyl-^13C-L-alanine]", "19.76±10.16 ‰"],
  ["CC(C)[C@H](NC(=O)c1ccccc1)C(=O)N[C@@H](C)[13C](=O)[O-].[Na+] [Na salt of Bz-Val-(^13C-Ala), N-benzoyl-L-valyl-^13C-L-alanine]", "13.98±6.59 ‰"]
]}

Shift focus to the following entry.
According to the records, this compound C[C@H](NC(=O)[C@H](CO)NC(=O)c1ccccc1)[13C](=O)[O-].[Na+] [Na salt of Bz-Ser-(^13C-Ala), N-benzoyl-L-seryl-^13C-L-alanine] displays Δ^13C(‰) value at 5 min after the administration of 8.29±4.94 ‰

----------
system: pancreatic exocrine function; assay: 13C-dipeptide breath test in normal rats (Δ13C in exhaled CO2 after oral administration); format: in vivo, rat; conditions: Table 1; overnight-fasted Wistar rats, oral 35 μmol/kg (5 ml/kg); peak in time course of Δ13C(‰) up to 20 min
The compounds listed here are annotated with their Peak time.
Number plus unit, in that order.

{"columns": ["compound", "Peak time"],
 "data": [
  ["C[C@H](NC(=O)[C@H](Cc1cnc[nH]1)NC(=O)c1ccccc1)[13C](=O)[O-].[Na+] [Na salt of Bz-His-(^13C-Ala), reference compound]", "20 min"],
  ["CC[C@H](C)[C@H](NC(=O)c1ccccc1)C(=O)N[C@@H](C)[13C](=O)[O-].[Na+] [Na salt of Bz-Ile-(^13C-Ala), reference compound]", "20 min"],
  ["CC(C)C[C@H](NC(=O)c1ccccc1)C(=O)N[C@@H](C)[13C](=O)[O-].[Na+] [Na salt of Bz-Leu-(^13C-Ala), reference compound]", "15 min"],
  ["C[C@H](NC(=O)[C@H](Cc1c[nH]c2ccccc12)NC(=O)c1ccccc1)[13C](=O)[O-].[Na+] [Na salt of Bz-Trp-(^13C-Ala), reference compound]", "15 min"]
]}

Shift focus to the following entry.
According to the records, this compound CC(C)[C@H](NC(=O)c1ccccc1)C(=O)N[C@@H](C)[13C](=O)[O-].[Na+] [Na salt of Bz-Val-(^13C-Ala), N-benzoyl-L-valyl-^13C-L-alanine] displays Peak time of 15 min
